biological target: UniProt P47901; experiment: Binding Assay; settings: pH 7.4; 25 °C
measuredEndpoint: Ki

compound: CCOc1ccc(OC)c(C2(N3CC4(CN(C5CCN(C6COC6)CC5)C4)C3)C(=O)N(S(=O)(=O)c3ccc(OC)cn3)C3C=CC(C#N)=CC32)c1 (configuration not stated)
Ki: < 1 nM
//
compound: CCOc1ccc(OC)cc1C1(N2CC3(CN(C4CCN(C(C)C)CC4)C3)C2)C(=O)N(S(=O)(=O)c2ccc(OC)cn2)C2C=CC(C#N)=CC21 (racemic)
Ki: < 1 nM

Kindly consider the entry below.
Query: Tell us which Ki value is on record for COc1ccc(S(=O)(=O)N2C(=O)C(c3cccnc3OC)(N3CC4(CN(C5CCN(C)CC5)C4)C3)C3C=C(C#N)C=CC32)nc1 (configuration not stated)
Reply: < 1 nM

----------
Attribute: Ki
target: Vasopressin V1b receptor (Homo sapiens); test: Binding Assay; conditions: pH 7.4; 25 °C
Sequence (P47901 whole entry): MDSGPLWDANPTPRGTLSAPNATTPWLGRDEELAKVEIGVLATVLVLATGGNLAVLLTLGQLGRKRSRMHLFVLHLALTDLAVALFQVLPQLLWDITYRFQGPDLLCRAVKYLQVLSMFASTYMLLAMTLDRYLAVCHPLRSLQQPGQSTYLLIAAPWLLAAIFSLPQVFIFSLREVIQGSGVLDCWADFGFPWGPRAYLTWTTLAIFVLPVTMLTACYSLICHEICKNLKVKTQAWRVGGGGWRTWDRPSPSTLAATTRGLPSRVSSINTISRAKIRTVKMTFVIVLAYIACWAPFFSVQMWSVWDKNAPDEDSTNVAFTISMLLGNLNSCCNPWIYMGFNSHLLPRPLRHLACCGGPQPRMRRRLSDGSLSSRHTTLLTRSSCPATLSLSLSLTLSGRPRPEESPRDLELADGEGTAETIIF

Before answering, review these 2 worked examples.
compound: COc1ccc(S(=O)(=O)N2C(=O)C(c3ccccc3OC)(N3CC4(CN(C5CCN(C)CC5)C4)C3)C3C=C(C#N)C=CC32)nc1 (stereo unspecified)
measuredEndpoint: Ki
reportedMeasurement: < 1 nM

compound: CCOc1ccc(OC)cc1[C@]1(N2CC3(CN(C4CCN(C)CC4)C3)C2)C(=O)N(S(=O)(=O)c2ccc(Cl)cn2)C2C=CC(C#N)=CC21 (stereo partly specified)
measuredEndpoint: Ki
reportedMeasurement: < 1 nM

Proceeding to the next compound to report its Ki.
Query: Retrieve Ki measured for COc1ccc(S(=O)(=O)N2C(=O)C(c3cc(OC)ccc3OC)(N3CC4(CN(C5CCN(C)CC5)C4)C3)C3C=C(C#N)C=CC32)nc1 (racemic) and print it.
Reply: < 1 nM
